Source listed as the Deep4Chem optical property database.

experiment: photoluminescence quantum yield (fraction); solvent given as SMILES; settings: in CC#N
observation_type: photoluminescence quantum yield

The cases that follow already have their photoluminescence quantum yield on record.
Nc1cccnc1    0.05
COc1nc(Cl)nc(Nc2ccc3cc4ccccc4cc3c2)n1    0.03
CCOC(=O)COc1ccc(/C=C/c2cc(C)c3n2[B-](F)(F)[N+]2=C(c4[nH]c(C)cc4C)c4ccccc4C2=C3)cc1    0.3
COC1=[N+]2C(=C(c3ccccc3)c3cc(SC#N)c(OC)n3[B-]2(F)F)C=C1SC#N    0.1
N#C/C(=C\c1ccc(Cl)cc1)c1nc(-c2ccccc2)c(-c2ccccc2)s1    0.004
CC1(C)CC(NCc2ccc3ccc4cccc5ccc2c3c45)CC(C)(C)N1    0.04
COc1ccc(/C=C/C(=O)c2ccccc2O)cc1OC    0.28
CNCCCN1c2ccccc2CCc2ccccc21    0.009

Recall and state the measured photoluminescence quantum yield for Cn1nc(-c2ccccc2)c2nc3cc(F)ccc3nc21 . 0.11

Write down photoluminescence quantum yield measured for item CCOC(=O)COc1ccc(/C=C/C2=C3c4ccccc4C(c4ccc[nH]4)=[N+]3[B-](F)(F)n3ccc(C)c32)cc1 0.003

Give the measured photoluminescence quantum yield for C(/C=C/c1ccc(N(c2ccccc2)c2ccccc2)cc1)=C\c1ccncc1 0.16
